Target: T1, HCoV-229E NTD (17–265 aa) (human coronavirus 229E, UniProt P15423 17-265)
T1 chain: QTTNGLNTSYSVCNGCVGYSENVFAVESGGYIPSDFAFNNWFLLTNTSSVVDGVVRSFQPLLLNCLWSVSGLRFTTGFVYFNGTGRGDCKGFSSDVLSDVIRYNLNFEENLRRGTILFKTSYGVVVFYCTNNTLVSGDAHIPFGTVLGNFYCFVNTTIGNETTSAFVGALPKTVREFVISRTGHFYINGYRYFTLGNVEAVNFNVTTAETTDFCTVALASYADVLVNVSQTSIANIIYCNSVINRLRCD
Assay: SPR
endpoint.label: Kd (nM)
Report only the number, with the unit nM understood.

Looking up Fab D04 (Fab, V domains shown) VH: EVQLVESGGGLVQPGGSLRLSCAASGFNLSSYYIHWVRQAPGKGLEWVASISPYSSSTYYADSVKGRFTISADTSKNTAYLQMNSLRAEDTAVYYCARWYSPSYGWYWPYASGAGGLDYWGQGTLVTVSS VL: DIQMTQSPSSLSASVGDRVTITCRASQSVSSAVAWYQQKPGKAPKLLIYSASSLYSGVPSRFSGSRSGTDFTLTISSLQPEDFATYYCQQSSPHYLITFGQGTKVEIK , I found its Kd recorded as 7.7
